Examples of molecules with documented pIC50 follow.
tested on: 362531-283-R-J2-PDC complex spheroid viability; test: Anticancer human tumor 362531-283-R-J2-PDC patient-derived colon adenocarcinoma cell line growth inhibition [RAS]; conditions: curve of first compound; second compound 0.003 µM
Keep it numeric: pIC50 is minus log10 of the concentration in mol/L.

Past entries and their recorded results:
CC(=O)OC12COC1CC(O)C1(C)C(=O)C(O)C3=C(C)C(OC(=O)C(O)C(NC(=O)OC(C)(C)C)c4ccccc4)CC(O)(C(OC(=O)c4ccccc4)C21)C3(C)C (configuration not stated) + CCn1c(-c2cccnc2C(C)OC)c2c3cc(ccc31)N1CCOC(CC(NC(=O)C(C(C)C)N(C)C(=O)C3(F)CCN(C(=O)C#CC(C)(C)N(C)C)CC3)C(=O)N3CCCC(N3)C(=O)OCC(C)(C)C2)C1; 6.63
CCc1c2c(nc3ccc(O)cc13)-c1cc3c(c(=O)n1C2)COC(=O)[C@]3(O)CC + CCn1c(-c2cc(N3CCN(C)CC3)cnc2C(C)OC)c2c3cc(ccc31)-c1csc(n1)CC(NC(=O)C1CC1C)C(=O)N1CCCC(N1)C(=O)OCC(C)(C)C2; 7.42

Query molecule follows.
Qu. Look at this molecule and give its reported pIC50. CC1(O)CCCC1n1c(=O)c(C(F)F)cc2cnc(NC3CCN(S(C)(=O)=O)CC3)nc21 (configuration not stated) + CCn1c(-c2cccnc2C(C)OC)c2c3cc(ccc31)N1CCOC(CC(NC(=O)C(C(C)C)N(C)C(=O)C3(F)CCN(C(=O)C#CC(C)(C)N(C)C)CC3)C(=O)N3CCCC(N3)C(=O)OCC(C)(C)C2)C1
Ans. 5.21

----------
tested on: 362531-283-R-J2-PDC complex spheroid viability; assay: Anticancer human tumor 362531-283-R-J2-PDC cell line growth inhibition [RAS]; conditions: compound 0.316 µM; stronger effect = lower value;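 also: spheroids exposed to the agents for 7 days before readout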;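 as to viability, T/C: luminescence viability as percent of DMSO vehicle control wells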
viability, T/C by entry:

Worked cases, viability, T/C given:
O=C(c1ccc(F)c(F)c1Nc1ccc(I)cc1F)N1CC(O)([C@@H]2CCCCN2)C1; 64.7% [middle of 4 runs]
C=CC(=O)N1CCN(c2nc(OCC3CCCN3C)nc3c(F)c(-c4nc(N)cc(C)c4C(F)(F)F)c(Cl)cc23)C(C)C1 (centres undefined); 102% [middle of 12 runs]
CC(C)NCC(C(=O)N1CCN(c2ncnc3c2C(C)CC3O)CC1)c1ccc(Cl)cc1 (centres undefined); 103% [middle of 4 runs]
CCC(CC)c1cc(NC2CCC(N)C2)n2nccc2n1 (centres undefined); 101% [middle of 4 runs]
Cc1nc(N2CCC3(CC2)COC(C)C3N)c(CO)nc1Sc1ccnc(N)c1Cl (centres undefined); 100% [middle of 4 runs]
C=CC(=O)Nc1cc(Nc2nccc(-c3cn(C)c4ccccc34)n2)c(OC)cc1N(C)CCN(C)C; 96.5% [middle of 4 runs]

Qu. State the recorded viability, T/C for this entry: CC1(O)CCCC1n1c(=O)c(C(F)F)cc2cnc(NC3CCN(S(C)(=O)=O)CC3)nc21 (centres undefined)
Ans. 89.9% [middle of 4 runs]

Qu. Same thing, different compound: NC1c2ccccc2OC12CCN(c1cnc3c(N4CCCc5ncccc54)n[nH]c3n1)CC2 (centres undefined)
Ans. 85.3% [middle of 4 runs]

Qu. Quick one: Nc1ccn(C2OC(CO)C(O)C2(F)F)c(=O)n1 (centres undefined)
Ans. 21.9% [middle of 4 runs]

----------
system: 362531-283-R-J2-PDC complex spheroid viability; test: Anticancer human tumor 362531-283-R-J2-PDC cell line growth inhibition [RAS]; settings: curve of first compound; second compound 0.0949 µM;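 also: spheroids exposed to the agents for 7 days before readout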
Reported IC50 by item:

Consider the worked cases shown below.
CC(C)NCC(C(=O)N1CCN(c2ncnc3c2C(C)CC3O)CC1)c1ccc(Cl)cc1 (centres undefined) + CCn1c(-c2cccnc2C(C)OC)c2c3cc(ccc31)N1CCOC(CC(NC(=O)C(C(C)C)N(C)C(=O)C3(F)CCN(C(=O)C#CC(C)(C)N(C)C)CC3)C(=O)N3CCCC(N3)C(=O)OCC(C)(C)C2)C1; > 10 µM
C=CC(=O)Nc1cc(Nc2nccc(-c3cn(C)c4ccccc34)n2)c(OC)cc1N(C)CCN(C)C + CCn1c(-c2cccnc2C(C)OC)c2c3cc(ccc31)N1CCOC(CC(NC(=O)C(C(C)C)N(C)C(=O)C3(F)CCN(C(=O)C#CC(C)(C)N(C)C)CC3)C(=O)N3CCCC(N3)C(=O)OCC(C)(C)C2)C1; > 1 µM
C=CC(=O)N1CCN(c2nc(OCC3CCCN3C)nc3c(F)c(-c4nc(N)cc(C)c4C(F)(F)F)c(Cl)cc23)C(C)C1 (centres undefined) + CCn1c(-c2cc(N3CCN(C)CC3)cnc2C(C)OC)c2c3cc(ccc31)-c1csc(n1)CC(NC(=O)C1CC1C)C(=O)N1CCCC(N1)C(=O)OCC(C)(C)C2; > 1 µM

Now for another entry.
Qu. Item C[C@@H](NC(=O)c1ncnc(N)c1Cl)c1ncc(C(=O)Nc2cc(C(F)(F)F)c(Cl)cn2)s1 + CCn1c(-c2cc(N3CCN(C)CC3)cnc2C(C)OC)c2c3cc(ccc31)-c1csc(n1)CC(NC(=O)C1CC1C)C(=O)N1CCCC(N1)C(=O)OCC(C)(C)C2 has what recorded IC50?
Ans. > 10 µM

----------
test system: 362531-283-R-J2-PDC complex spheroid viability; test: Anticancer human tumor 362531-283-R-J2-PDC cell line growth inhibition [RAS]; settings: curve of first compound; second compound 0.003 µM;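 also: spheroids exposed to the agents for 7 days before readout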
pIC50: −log10 of the molar value.
reported-endpoint: pIC50

C=CC(=O)N1CCN(c2nc(OCC3CCCN3C)nc3c(F)c(-c4nc(N)cc(C)c4C(F)(F)F)c(Cl)cc23)C(C)C1 (centres undefined) + CCn1c(-c2cccnc2C(C)OC)c2c3cc(ccc31)N1CCOC(CC(NC(=O)C(C(C)C)N(C)C(=O)C3(F)CCN(C(=O)C#CC(C)(C)N(C)C)CC3)C(=O)N3CCCC(N3)C(=O)OCC(C)(C)C2)C1; < 6.00
CC1(C)CCC(Nc2ncc(C(F)(F)F)c(-c3c[nH]c4c(P(C)(C)=O)c(C#N)ccc34)n2)CN1 (centres undefined) + CCn1c(-c2cccnc2C(C)OC)c2c3cc(ccc31)N1CCOC(CC(NC(=O)C(C(C)C)N(C)C(=O)C3(F)CCN(C(=O)C#CC(C)(C)N(C)C)CC3)C(=O)N3CCCC(N3)C(=O)OCC(C)(C)C2)C1; < 6.52
C=CC(=O)N1CCN(c2nc(OCC3CCCN3C)nc3c(F)c(-c4nc(N)cc(C)c4C(F)(F)F)c(Cl)cc23)C(C)C1 (centres undefined) + CCn1c(-c2cc(N3CCN(C)CC3)cnc2C(C)OC)c2c3cc(ccc31)-c1csc(n1)CC(NC(=O)C1CC1C)C(=O)N1CCCC(N1)C(=O)OCC(C)(C)C2; < 6.00

Then there is this molecule:
Qu. Request the reported pIC50 associated with C[C@@H](NC(=O)c1ncnc(N)c1Cl)c1ncc(C(=O)Nc2cc(C(F)(F)F)c(Cl)cn2)s1 + CCn1c(-c2cc(N3CCN(C)CC3)cnc2C(C)OC)c2c3cc(ccc31)-c1csc(n1)CC(NC(=O)C1CC1C)C(=O)N1CCCC(N1)C(=O)OCC(C)(C)C2
Ans. < 5.00
